Please provide measured activation for the entries that follow.
experiment: FXN promoter activators, primary screen, cell-based, luciferase luminescence, HEK293 lucGAA850 (AID 540364); conditions: HEK293 lucGAA850 FXN promoter luciferase reporter, 24 h; at 6 µM; active compounds read high; percent of 10 µM SAHA response;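 note: 0% = DMSO wells and 100% = 10 µM SAHA wells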
About 2,000 (0.56%) of roughly 360,000 compounds were called active. This excerpt belongs to a sample that is enriched for actives.
Give bare numbers, in %.

Some solved cases for reference:
O=C(NCCCn1ccnc1)c1cc(Br)c(Br)s1    1.52
CC[C@]1(C(=O)OC)[C@H]2C(=O)N(Cc3ccccc3)C(=O)[C@H]2[C@H]2CN=C(SCc3ccc(Cl)cc3)N21    17.8
O=C(NC1CCCCCCC1)c1cccs1    1.55
COc1ccc(CNC(=O)c2ccc(-c3cccnc3)c3ccoc23)cc1OC    1.42
CC[C@]1(C(=O)OC)[C@H]2C(=O)N(Cc3ccccc3)C(=O)[C@H]2[C@H]2CN=C(SCc3ccccc3)N21    15.5

Parameter requested: activation. Apply to each item below.
1. Cc1ccc(S(=O)(=O)N(C)C)cc1NC(=O)C(C)OC(=O)c1ccc2ccccc2n1 (centres undefined)
2. COC(=O)[C@]1(Cc2ccccc2)N[C@H](CN(C)S(=O)(=O)c2ccc(F)cc2)[C@@H]2C(=O)N(Cc3ccccc3)C(=O)[C@@H]21
3. CCN(C[C@H]1N[C@@](Cc2ccccc2)(C(=O)OC)[C@H]2C(=O)N(Cc3ccccc3)C(=O)[C@@H]12)C(=O)c1ccc(C)cc1
4. N#CCSc1nc2c(c(=O)n1Cc1ccccc1)C1(CCCC1)Cc1ccccc1-2
5. CC[C@]1(C(=O)OC)[C@H]2C(=O)N(C)C(=O)[C@H]2[C@H]2CN(C)C(=NCc3ccccc3)N21
6. CC1CC2=C(CC1/C=N/NC(N)=S)C(C)(C)CCC2 (centres undefined)
7. CC(=O)c1ccc(N2CCN(C(=O)C3CCN(S(=O)(=O)c4ccc5c(c4)CC(C)N5C(=O)C4CC4)CC3)CC2)cc1 (centres undefined)

1: 0.74; 2: -3.95; 3: -1.78; 4: -0.71; 5: -0.41; 6: -2.98; 7: 1.92

Each molecule below has a reported value. Please supply its activation.
1. CCc1nnc(NC(=O)CSc2nnc(COc3ccc(C#N)cc3)n2-c2ccccc2)s1
2. Cc1cc(C(=O)N2CCN(c3ccccn3)CC2)c(C)o1
3. O=C(O)c1ccccc1N=N/C(=N/Nc1cc(S(=O)(=O)O)ccc1O)c1ccccc1
4. O=S(=O)(c1ccc(F)cc1)N1CCN(C(=S)NC2CCCC2)CC1
5. N#CCSc1nc2ccc(N3CCOCC3)cc2c(=O)n1CCc1ccccc1

0.66
1.36
-1.25
3.66
-2.84

List the reported activation of each molecule below.
1. CCNC(=O)N(CC)C[C@H]1N[C@@](CC)(C(=O)OC)[C@H]2C(=O)N(Cc3ccccc3)C(=O)[C@@H]12
2. COc1ccc(NC(=S)SC)cc1OC
3. O=C(Cc1ccc(-n2c(=O)c3sccc3n(Cc3ccc(F)cc3)c2=O)cc1)NCc1ccco1
4. COC(=O)[C@@]1(C)[C@H]2C(=O)N(Cc3ccccc3)C(=O)[C@H]2[C@H]2CN=C(SCC3CC3)N21
5. Cc1cccc(C(=O)Nc2nnc(S(=O)(=O)N3CCCCCC3)s2)c1

0.95
0.31
-1.57
15.7
-0.31
